Target: Drosophila melanogaster dopamine transporter (dDAT) (Drosophila melanogaster, UniProt Q7K4Y6)
Construct: Full-length wild-type dDAT with a C-terminal thrombin site and 8 histidine-tag
Sequence (Q7K4Y6 whole entry): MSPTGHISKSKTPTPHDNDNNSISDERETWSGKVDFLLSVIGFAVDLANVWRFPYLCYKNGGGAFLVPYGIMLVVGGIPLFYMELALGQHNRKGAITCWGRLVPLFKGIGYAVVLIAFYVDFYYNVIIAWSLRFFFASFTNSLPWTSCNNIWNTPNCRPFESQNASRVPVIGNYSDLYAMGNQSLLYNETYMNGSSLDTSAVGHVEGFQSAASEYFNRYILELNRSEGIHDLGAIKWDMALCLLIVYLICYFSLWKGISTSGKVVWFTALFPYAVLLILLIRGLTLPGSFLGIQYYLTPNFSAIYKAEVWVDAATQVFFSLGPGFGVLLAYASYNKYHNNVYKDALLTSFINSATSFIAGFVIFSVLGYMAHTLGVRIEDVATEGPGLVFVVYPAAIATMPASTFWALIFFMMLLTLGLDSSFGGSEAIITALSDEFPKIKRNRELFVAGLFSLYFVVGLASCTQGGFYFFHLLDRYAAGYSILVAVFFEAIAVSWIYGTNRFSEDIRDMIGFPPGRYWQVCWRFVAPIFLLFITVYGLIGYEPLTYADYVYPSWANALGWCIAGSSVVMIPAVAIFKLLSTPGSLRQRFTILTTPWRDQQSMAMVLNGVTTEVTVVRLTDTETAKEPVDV
Assay: [3H]nisoxetine saturation binding, scintillation proximity assay on purified dDAT
measured.parameter: Kd (nM)
Give just the number in nM; leave the unit off.

## Task Return the recorded Kd value; entry: CNCCC(Oc1ccccc1OC)c1ccccc1 (stereo not shown)
## Result 80
